# Test system: HS 578T breast
# assay.remarks: NCI-60 one-dose screen, 48 h (100 = growth as untreated, 0 = no growth, -100 = all killed)
# test.context: 10 µM unless noted
Compounds without any hit were thinned out: in the full panel of roughly 83,000, 20% have a hit.
readout.kind: growth (%)

- COc1cc(Nc2nc(N[C@H]3CCCC[C@@H]3N)nc3cc[nH]c(=O)c23)cc(OC)c1: 53.6
- CC1CCC(C)N(C)C1 (centres undefined): 108
- CCOC(=O)NNC(=S)Nc1ccccc1: 103
- CCN(CC)c1ccc(C(=N)c2ccc(N(CC)CC)cc2)cc1: -47.2

----------
# System: UACC-257 melanoma
# assay.remarks: NCI-60 one-dose screen, 48 h (100 = growth as untreated, 0 = no growth, -100 = all killed)
# test.context: 10 µM unless noted
Compounds without any hit were thinned out: in the full panel of roughly 83,000, 20% have a hit. Activity calls are given as the source filed them. How the source made its calls: active means growth percent below 10; inactive means the rest.
// reported growth per item
readout.kind: growth

• O=C([O][Sn]([O]C(=O)c1ccccn1)([c]1ccccc1)[c]1ccccc1)c1ccccn1 = 73.9% (inactive)
• FC(F)(F)c1ccccc1-c1cn2c(ccc3ccccc32)n1 = 70.3% (inactive)
• O=C(c1ccccc1)C1OC1c1ccc([N+](=O)[O-])cc1 (stereo not drawn) = 68.1% (inactive)
• O=S(=O)(NCCCNc1nccc(-n2ccc3cccnc32)n1)c1cccc(C(F)(F)F)c1 = 108% (inactive)
• CN1CCN(Cc2ccc(NC(=O)c3cncc(C#Cc4cnc(N)c5cnccc45)c3)cc2C(F)(F)F)CC1 = -1.75% (active)
• CC(C)C1=CC2=C(C=O)C[C@@H]3[C@](C)(CCC[C@@]3(C)C(=O)OCC#CCN3CCCC3)[C@H]2CC1 = 86.6% (inactive)
• CC(C)(C)n1cc(-c2ccnc(NCCCNS(=O)(=O)c3cccc(F)c3)c2)c(-c2cccc(O)c2)n1 = 52.9% (inactive)
• COc1ccc(-c2nc(N3CCCC3=O)sc2Br)cc1OC = 98.5% (inactive)
• CC(=O)Oc1csc(N(C(C)=O)c2cccc(C(F)(F)F)c2)n1 = 88.5% (inactive)
• Cc1ccc(C(=O)NCCCNc2nccc(-n3ccc4cccnc43)n2)cc1 = 107% (inactive)
• COC(=O)c1cc2cc(-c3ccc(OC)cc3)cnc2[nH]1 = 51.3% (inactive)
• Cn1ccc(=O)c(S(N)(=O)=O)c1 = 109% (inactive)
• Clc1cc(Cl)c2nc(-c3ccc(-c4ccc(/C=N/NC5=NCCN5)cc4)s3)cn2c1 = 99% (inactive)
• CCCCN(CCCC)C(=O)CC = 129% (inactive)
• O=c1ccn(C2CC(O)C(O)C(CO)O2)c(=O)[nH]1 (stereo not drawn) = 112% (inactive)
• Cc1nc2ncccc2nc1Nc1ccc(S(=O)(=O)Nc2ccccn2)cc1 = 107% (inactive)
• COc1ccc(Nc2[nH]n3c(=O)cc(C)nc3c2C(N)=O)c(OC)c1 = 85.1% (inactive)
• C=C1CCC2C3(C)COC(c4ccccc4)OC3CCC2(C)C1/C=C/C1=CCOC1=O (stereo not drawn) = 65.9% (inactive)

----------
# Tested on: OVCAR-8 ovarian
# assay.remarks: NCI-60 one-dose screen, 48 h (100 = growth as untreated, 0 = no growth, -100 = all killed)
# test.context: 10 µM unless noted
Compounds without any hit were thinned out: in the full panel of roughly 83,000, 20% have a hit.
readout.kind: growth (%)

- C=C(C)[C@@H]1C[C@H](O)Cc2cc(F)ccc2N1: 96.5
- O=C(Nc1ccc(Cl)c(Cl)c1)NS(=O)(=O)c1cnccc1Oc1ccc(F)cc1: 55.4
- C=C1CCC2C(C)(CO)C(O)CCC2(C)C1CC(NCc1ccccc1)C1=CCOC1=O (stereo not given): 94
- Cc1cccc(/C=N/Nc2cc(C)c3cccc(C)c3n2)n1: 83.3
- CC(=O)Nc1ccc(S(=O)(=O)n2ccc(-c3ccc4c(c3)CCC(C)(C)O4)n2)cc1: 69.4
- CC(=O)Oc1cccc(S(=O)(=O)n2cc(C(=O)C(=O)Nc3ccncc3)c3ccccc32)c1: 89.7
- COP(=O)(OC)/C(=N\NS(=O)(=O)c1ccc(C)cc1)c1ccccc1: 106
- C=C1CCC2C3(C)COC(c4ccc(N(C)C)cc4)OC3CCC2(C)C1C/C=C1/C(=O)OCC1O (stereo not given): 47.5
- Cc1ccc(S(=O)(=O)n2cc(C(=O)C(=O)N3CCOCC3)c3ccccc32)cc1: 91.5
- Nc1cccc(-c2nc3sccn3c2-c2ccnc(NCCCNS(=O)(=O)c3cccc4ccccc34)n2)c1: 23.5
